B1: SLC35F2 (parent)
chain: FVAFALCMFCLYSFMPLVIKVTSA

Variants of: B1
Test: protein stability index of a GFP-peptide fusion (GPS, HEK-293T) (PSI 1-6); higher = more stable;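 note: lentivirally expressed fusions sorted by FACS into six bins by GFP to DsRed ratio, PSI derived from sequencing read proportions per bin multiplied by bin number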
Details: c terminus: a fixed tail appended
Where protein stability index equals or exceeds 3, the correct label is yes; where it does not, the label is no.

Given the entry `A3F` , answer whether its protein stability index meets or surpasses 3.
no

Given the entry `P16L` , answer whether its protein stability index meets or surpasses 3.
no

Given the entry `K20Y` , answer whether its protein stability index meets or surpasses 3.
no

Given the entry `Y12W` , answer whether its protein stability index meets or surpasses 3.
no

Given the entry `L11N` , answer whether its protein stability index meets or surpasses 3.
yes

Given the entry `T22W` , answer whether its protein stability index meets or surpasses 3.
no

Given the entry `M15C` , answer whether its protein stability index meets or surpasses 3.
yes

Given the entry `C10I` , answer whether its protein stability index meets or surpasses 3.
no

Given the entry `C7P` , answer whether its protein stability index meets or surpasses 3.
no

Given the entry `S13W` , answer whether its protein stability index meets or surpasses 3.
no

Given the entry `M15E` , answer whether its protein stability index meets or surpasses 3.
no

Given the entry `I19F` , answer whether its protein stability index meets or surpasses 3.
no
